experiment: Microsomal stability in human liver microsomes assessed as intrinsic clearance in liver measured up to 60 mins in presence of NADPH by LC-MS/MS analysis; assay type: ADME, Microsome; conditions: read-out: CLH
Collected CLint scaled values appear next to each entry.

Check out these entries, answers already filled in.
compound	CLint scaled
O=C1CCC(c2ccc(N3CCC(CN4CCC(CC(=O)N[C@H]5CC[C@H](Nc6ncnc7[nH]cc(C(=O)c8ccc(Oc9ccccc9)cc8)c67)C5)CC4)CC3)cc2)C(=O)N1 (some centres undefined)	14.2 mL/min/kg
O=C1CCC(c2ccc(N3CCC(CCN4CCC(CC(=O)N[C@H]5CC[C@H](Nc6ncnc7[nH]cc(C(=O)c8ccc(Oc9ccccc9)cc8)c67)C5)CC4)CC3)cc2)C(=O)N1 (some centres undefined)	< 8.6 mL/min/kg
O=C1CCC(c2ccc(N3CCC(CN4CCC(CC(=O)N[C@H]5CC[C@H](Nc6ncnc7[nH]cc(C(=O)c8ccc(Oc9ccccc9)cc8)c67)C5)CC4)CC3)nc2)C(=O)N1 (some centres undefined)	18.2 mL/min/kg

Then there is this compound:
The reported value for O=C1CCC(c2ccc(N3CCC(CCN4CCC(CC(=O)N[C@H]5CC[C@H](Nc6ncnc7[nH]cc(C(=O)c8ccc(Oc9ccccc9)cc8)c67)C5)CC4)CC3)nc2)C(=O)N1 (some centres undefined) in terms of CLint scaled is < 8.6 mL/min/kg

====

assay: Microsomal stability in human liver microsomes assessed as half life measured up to 60 mins in presence of NADPH by LC-MS/MS analysis; type: ADME, Microsome
metric: half-life (h)
Your answer is read as h, so omit the unit and give the number.

molecule	half-life [h]
O=C1CCC(c2ccc(N3CCC(CN4CCC(CC(=O)N[C@H]5CC[C@H](Nc6ncnc7[nH]cc(C(=O)c8ccc(Oc9ccccc9)cc8)c67)C5)CC4)CC3)nc2)C(=O)N1 (some centres undefined)	1.13

Could you now look at the following molecule, please?
For reference, reported half-life for O=C1CCC(c2ccc(N3CCC(CN4CCC(CC(=O)N[C@H]5CC[C@H](Nc6ncnc7[nH]cc(C(=O)c8ccc(Oc9ccccc9)cc8)c67)C5)CC4)CC3)cc2)C(=O)N1 (some centres undefined) stands at 1.47

====

target: Protein cereblon/Tyrosine-protein kinase BTK (Homo sapiens, UniProt Q06187+Q96SW2); assay: PROTAC activity at CRBN/BTK in human JeKo-1 cells assessed as BTK degradation at 100 nM incubated for 24 hrs by Western blot analysis relative to control; type: cell-based
Sequence (Q06187 2-659 limits assumed): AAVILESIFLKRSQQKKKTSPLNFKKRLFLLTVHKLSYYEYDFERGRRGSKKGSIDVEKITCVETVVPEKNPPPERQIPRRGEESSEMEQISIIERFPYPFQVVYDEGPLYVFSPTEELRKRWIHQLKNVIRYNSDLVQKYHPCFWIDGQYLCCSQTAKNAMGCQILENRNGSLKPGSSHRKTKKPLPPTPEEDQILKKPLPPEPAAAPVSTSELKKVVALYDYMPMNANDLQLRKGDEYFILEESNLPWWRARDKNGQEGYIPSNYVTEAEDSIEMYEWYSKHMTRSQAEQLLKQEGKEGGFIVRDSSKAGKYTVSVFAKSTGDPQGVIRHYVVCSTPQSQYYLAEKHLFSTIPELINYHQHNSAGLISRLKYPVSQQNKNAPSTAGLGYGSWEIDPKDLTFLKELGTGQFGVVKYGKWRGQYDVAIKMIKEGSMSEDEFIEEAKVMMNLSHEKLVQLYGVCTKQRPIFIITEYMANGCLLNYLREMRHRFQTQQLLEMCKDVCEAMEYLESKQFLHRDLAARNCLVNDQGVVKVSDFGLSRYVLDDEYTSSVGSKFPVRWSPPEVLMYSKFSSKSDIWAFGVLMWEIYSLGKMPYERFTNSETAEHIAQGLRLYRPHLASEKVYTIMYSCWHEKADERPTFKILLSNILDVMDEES
Sequence (Q96SW2 whole entry partner): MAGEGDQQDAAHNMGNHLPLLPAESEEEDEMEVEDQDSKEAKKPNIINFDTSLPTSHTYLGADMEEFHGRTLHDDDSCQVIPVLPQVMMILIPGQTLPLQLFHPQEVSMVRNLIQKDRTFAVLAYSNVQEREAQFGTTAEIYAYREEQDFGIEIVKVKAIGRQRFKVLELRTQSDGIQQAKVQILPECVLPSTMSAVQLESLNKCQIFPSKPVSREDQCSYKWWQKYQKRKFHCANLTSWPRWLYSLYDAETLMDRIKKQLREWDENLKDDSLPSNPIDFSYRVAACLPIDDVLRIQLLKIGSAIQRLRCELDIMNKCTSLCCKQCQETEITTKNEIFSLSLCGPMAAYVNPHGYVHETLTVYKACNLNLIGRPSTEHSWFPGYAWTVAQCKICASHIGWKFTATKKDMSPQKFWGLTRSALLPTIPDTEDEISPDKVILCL
metric: Activity (%)
Give just the numeric value; % need not be written.

Completed entries (count: 10):
molecule	Activity / %
O=C1CCC(N2Cc3cc(N4CCC(CCN5CCC(CC(=O)N[C@H]6CC[C@@H](Nc7ncnc8[nH]cc(C(=O)c9ccc(F)cc9Cl)c78)CC6)CC5)CC4)c(F)cc3C2=O)C(=O)N1 (stereo partly drawn)	23
O=C1CCC(c2ccc(N3CCC(CN4CCC(CC(=O)N[C@H]5CC[C@H](Nc6ncnc7[nH]cc(C(=O)c8ccc(Oc9ccccc9)cc8)c67)C5)CC4)CC3)cc2)C(=O)N1 (stereo partly drawn)	88
Cc1ccc(C(=O)N2CCC(CCN3CCC(CC(=O)N[C@H]4CC[C@@H](Nc5ncnc6[nH]cc(C(=O)c7ccc(Oc8ccccc8)cc7Cl)c56)CC4)CC3)CC2)cc1N1CCC(=O)NC1=O	81
O=C1CCC(n2ncc(N3CCC(CCN4CCC(CC(=O)N[C@H]5CC[C@@H](Nc6ncnc7[nH]cc(C(=O)c8ccc(Oc9ccccc9)cc8Cl)c67)CC5)CC4)CC3)c(Cl)c2=O)C(=O)N1 (stereo partly drawn)	91
O=C1CCC(N2Cc3cc(N4CCC(CCN5CCC(CC(=O)N[C@H]6CC[C@@H](Nc7ncnc8[nH]cc(C(=O)c9ccc(Oc%10ccccc%10)cc9Cl)c78)CC6)CC5)CC4)c(F)cc3C2=O)C(=O)N1 (stereo partly drawn)	89
O=C1CCN(c2cccc(C(=O)N3CCC(CCN4CCC(CC(=O)N[C@H]5CC[C@@H](Nc6ncnc7[nH]cc(C(=O)c8ccc(Oc9ccccc9)cc8Cl)c67)CC5)CC4)CC3)c2)C(=O)N1	24
O=C1CCC(c2ccc(N3CCC(CCN4CCC(CC(=O)N[C@H]5CC[C@H](Nc6ncnc7[nH]cc(C(=O)c8ccc(Oc9ccccc9)cc8)c67)C5)CC4)CC3)nc2)C(=O)N1 (stereo partly drawn)	91
O=C1CCC(c2ccc(N3CCC(CCN4CCC(CC(=O)N[C@H]5CC[C@@H](Nc6ncnc7[nH]cc(C(=O)c8ccc(Oc9ccccc9)cc8Cl)c67)CC5)CC4)CC3)cc2)C(=O)N1 (stereo partly drawn)	89
O=C1CCC(N2Cc3cc(N4CCC(CCN5CCC(CC(=O)N[C@H]6CC[C@@H](Nc7ncnc8[nH]cc(C(=O)c9ccccc9Cl)c78)CC6)CC5)CC4)c(F)cc3C2=O)C(=O)N1 (stereo partly drawn)	36
O=C1CCC(c2ccc(N3CCC(CN4CCC(CC(=O)N[C@H]5CC[C@H](Nc6ncnc7[nH]cc(C(=O)c8ccc(Oc9ccccc9)cc8)c67)C5)CC4)CC3)nc2)C(=O)N1 (stereo partly drawn)	93

Tested on Protein cereblon/Tyrosine-protein kinase BTK (Homo sapiens, UniProt Q06187+Q96SW2): O=C1CCC(c2ccc(N3CCC(CCN4CCN(CC(=O)N[C@H]5CC[C@@H](Nc6ncnc7[nH]cc(C(=O)c8ccc(Oc9ccccc9)cc8)c67)CC5)CC4)CC3)cc2)C(=O)N1 (stereo partly drawn) . Observed Activity: 53

Record O=C1CCC(N2Cc3cc(N4CCC(CCN5CCC(CC(=O)N6CCN(c7ncnc8[nH]cc(C(=O)c9ccc(Oc%10ccccc%10)cc9Cl)c78)CC6)CC5)CC4)c(F)cc3C2=O)C(=O)N1 (stereo not drawn) ; system Protein cereblon/Tyrosine-protein kinase BTK (Homo sapiens, UniProt Q06187+Q96SW2); Activity = 47

Response field Activity (Protein cereblon/Tyrosine-protein kinase BTK (Homo sapiens, UniProt Q06187+Q96SW2)) for item O=C1CCC(c2cccc(N3CCC(CCN4CCC(CC(=O)N[C@H]5CC[C@@H](Nc6ncnc7[nH]cc(C(=O)c8ccc(Oc9ccccc9)cc8Cl)c67)CC5)CC4)CC3)c2)C(=O)N1 (stereo partly drawn) : 77

The observed Activity for O=C1CCC(NC(=O)c2ccc(N3CCC(CCN4CCC(CC(=O)N[C@H]5CC[C@@H](Nc6ncnc7[nH]cc(C(=O)c8ccc(Oc9ccccc9)cc8Cl)c67)CC5)CC4)CC3)cn2)C(=O)N1 (stereo partly drawn) when tested with Protein cereblon/Tyrosine-protein kinase BTK (Homo sapiens, UniProt Q06187+Q96SW2) stands at 73

// returns Activity for O=C1CCC(c2ccc(N3CC4(CCN(CC(=O)N[C@H]5CC[C@@H](Nc6ncnc7[nH]cc(C(=O)c8ccc(Oc9ccccc9)cc8)c67)CC5)CC4)C3)cc2)C(=O)N1 (stereo partly drawn) with Protein cereblon/Tyrosine-protein kinase BTK (Homo sapiens, UniProt Q06187+Q96SW2); value = 23

Tested system Protein cereblon/Tyrosine-protein kinase BTK (Homo sapiens, UniProt Q06187+Q96SW2); Activity recorded for O=C1CCC(c2ccc(N3CCC(CN4CCC(CC(=O)N[C@H]5CC[C@@H](Nc6ncnc7[nH]cc(C(=O)c8ccc(Oc9ccccc9)cc8)c67)CC5)CC4)C3)cc2)C(=O)N1 (stereo partly drawn) was 6

I looked up `O=C1CCN(c2ccc(C(=O)N3CCC(CCN4CCC(CC(=O)N[C@H]5CC[C@@H](Nc6ncnc7[nH]cc(C(=O)c8ccc(Oc9ccccc9)cc8Cl)c67)CC5)CC4)CC3)cc2)C(=O)N1` and its Activity for Protein cereblon/Tyrosine-protein kinase BTK (Homo sapiens, UniProt Q06187+Q96SW2) was 35

# lookup: O=C1CCC(N2Cc3cc(N4CCC(CCN5CCC(CC(=O)N[C@H]6CC[C@H](Nc7ncnc8[nH]cc(C(=O)c9ccc(Oc%10ccccc%10)cc9Cl)c78)CC6)CC5)CC4)c(F)cc3C2=O)C(=O)N1 (stereo partly drawn) on Protein cereblon/Tyrosine-protein kinase BTK (Homo sapiens, UniProt Q06187+Q96SW2), Activity = 98
